The values you see were collected from paper PMC4118869.

Biological target: hemagglutinin of A/California/07/2009 (H1N1)pdm09, in the influenza virus antigen standard (Influenza A virus A/California/07/2009 …, UniProt C3W5X2, strain)
Assay: ELISA
Conditions: one partner purified
measured-endpoint: binding result

Example entries begin here.
R1a-F4 (VHH, source: E. coli WK6 periplasm, purified (Talon IMAC, Superdex 75 SEC)) VHH: QVQLVESGGGLVQPGGSLRLSCAASGSISRIVTMGWYRQGPGKERELVAVIGNYGNTNYADSVKGRFTVSRDNAKDTAYLQMNNLNVEDTAMYYCKCSTTTPPHEFWGQGTQVTVSS = binds
R1a-G6 (VHH, source: E. coli WK6 periplasm, purified (Talon IMAC, Superdex 75 SEC)) VHH: QVQLVESGGGLVQSGGSLRLSCAASGSMSRIITMGWYRQAPGMERELVAVIGNNDNTVYGDSVQGRFTVSRDNAKNTAYLQMNSLNAEDTAMYYCKISTLTPPHEYWGQGTQVTVSS = binds
R1a-A5 (VHH, also called R1a-A5 monovalent; source: E. coli WK6 periplasm, purified (Talon IMAC, Superdex 75 SEC)) VHH: QVQLVESGGGLVQPGGSLRLSCSASGSAVLFSTYPMSWYRQAPGKQRELVAAVTTDGSTSYADYAKGRFTISRDNAKNTVYLQMNSLKPEDTAVYYCNARDGFFNRYDYWGQGTQVTVSS = binds
R1a-B6 (VHH, also called R1a-B6 monovalent; source: E. coli WK6 periplasm, purified (Talon IMAC, Superdex 75 SEC)) VHH: QVQLVESGGGLVQPGGSLRLSCAASGSFFSRYRMGWYRQAPGEQRELVASIAYDGSTSYADPVKGRFTISRDNANTVHLQMYSLKPDDTAVYYCNLDPPGILYWGQGTQVTVSS = binds
R2b-D9 (VHH, source: E. coli WK6 periplasm, purified (Talon IMAC, Superdex 75 SEC)) VHH: QVQLVESGGGLVQPGGSLRLSCLASGSAFSLYTMGWYRQAPGNQRELVAAITSGESTNYADSVKGRFTISRDNAKNTVYLQMNSLKPEDTAVYYCNADPLSTGWGQYSYWGQGTQVTVSS = binds

Query :: Indicate the recorded binding result value for this binder: R1a-C5 (VHH, source: E. coli WK6 periplasm, purified (Talon IMAC, Superdex 75 SEC)) VHH: QVQLVESGGGLVQPGGSLRLSCAASNDIFSFYTMGWYLQAIGKQREPVAVIGNGGNTNYAESVKGRFTISRDGAKNTAYLQMNSLKPEDTAVYYCMASGPGGLNVWGQGTQVTVSS
Result :: binds
